Where do the numbers come from? From the kinase profiling compilation of Christmann-Franck et al. (2016).

molecular target: UniProt:Q9BZL6; assay: radiometric filter-binding kinase assay, Kinase HotSpot; settings: compound 0.5 µM; ATP 10 µM
Sequence (Q9BZL6 whole entry, looked up): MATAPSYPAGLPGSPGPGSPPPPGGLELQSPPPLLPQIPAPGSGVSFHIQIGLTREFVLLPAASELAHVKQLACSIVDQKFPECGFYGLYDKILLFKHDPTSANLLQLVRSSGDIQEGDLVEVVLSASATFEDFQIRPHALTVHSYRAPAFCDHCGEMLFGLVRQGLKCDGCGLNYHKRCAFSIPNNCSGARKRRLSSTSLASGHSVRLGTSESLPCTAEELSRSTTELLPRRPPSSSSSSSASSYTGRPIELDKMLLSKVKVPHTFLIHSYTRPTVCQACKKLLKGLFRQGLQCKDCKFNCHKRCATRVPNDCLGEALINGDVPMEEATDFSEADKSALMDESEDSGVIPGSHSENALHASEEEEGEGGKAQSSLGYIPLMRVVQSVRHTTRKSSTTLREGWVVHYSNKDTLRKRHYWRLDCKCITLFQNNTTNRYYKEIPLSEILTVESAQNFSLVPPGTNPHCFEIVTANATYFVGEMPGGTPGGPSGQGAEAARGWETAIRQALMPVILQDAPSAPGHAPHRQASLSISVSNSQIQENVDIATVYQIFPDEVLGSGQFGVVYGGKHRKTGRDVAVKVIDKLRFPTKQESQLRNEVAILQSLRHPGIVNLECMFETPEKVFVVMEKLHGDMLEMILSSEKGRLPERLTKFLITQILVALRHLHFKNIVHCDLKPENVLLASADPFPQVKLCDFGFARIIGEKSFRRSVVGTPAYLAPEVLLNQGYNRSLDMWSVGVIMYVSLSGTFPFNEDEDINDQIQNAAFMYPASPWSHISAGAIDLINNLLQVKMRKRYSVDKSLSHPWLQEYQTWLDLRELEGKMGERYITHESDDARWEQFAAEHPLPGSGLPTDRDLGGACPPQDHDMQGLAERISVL
Property: residual activity; scope: individual molecules
Field: numeric (%). Do not append units.

Worked set:
- Molecule: "COc1cc2nccc(Oc3ccc(NC(=S)NC(=O)c4ccccc4C)cc3)c2cc1OC"
  residual activity, %: 86.8
- Molecule: "O=C1Nc2cc(Br)ccc2/C1=C1/Nc2ccccc2/C1=N\\O"
  residual activity, %: 94.1
- Molecule: "O=c1cc(-c2cccc3c2Sc2ccccc2S3)oc(N2CCOCC2)c1"
  residual activity, %: 105
- Molecule: "O=C(Nc1ccc(Cl)cc1)c1ccccc1NCc1ccncc1"
  residual activity, %: 98
- Molecule: "CC(C)n1cnc2c(Nc3cccc(Cl)c3)nc(NCCO)nc21"
  residual activity, %: 88.1
- Molecule: "Nc1nc(Nc2ccc(S(N)(=O)=O)cc2)nn1C(=S)Nc1c(F)cccc1F"
  residual activity, %: 9.05
- Molecule: "Cc1ccc(NC(=O)c2ccc(CN3CCN(C)CC3)cc2)cc1Nc1nc(-c2cccnc2)cs1"
  residual activity, %: 98.2
- Molecule: "Cc1cc2ncc(-c3ccccc3)nc2cc1C"
  residual activity, %: 96.5
- Molecule: "C#Cc1cccc(Nc2ncnc3cc(OCCOC)c(OCCOC)cc23)c1"
  residual activity, %: 85.9
- Molecule: "CCN1/C(=C/C(C)=O)Sc2ccc(OC)cc21"
  residual activity, %: 69.4

Which residual activity is listed for COc1ccc(-c2cnc3c(-c4ccsc4)cnn3c2)cc1 ? 97.7

Item CC(C)[C@H](CO)Nc1nc(Nc2cccc(Cl)c2)c2ncn(C(C)C)c2n1 has what recorded residual activity? 99.7

Suppose we examine the molecule O=c1cc(N2CCNCC2)oc2c(-c3ccccc3)cccc12 ; what residual activity value has been reported? 86.7

Item CSc1nc(-c2ccc(F)cc2)c(-c2ccnc(NC(C)c3ccccc3)c2)[nH]1 (centres undefined) has what recorded residual activity? 86.4

====

Listing: residual activity of selected compounds
molecular target: FGFR4 (human); assay: radiometric filter-binding kinase assay, Kinase HotSpot; settings: compound 0.5 µM; ATP 10 µM
Field: numeric (%). Do not append units.

These recorded examples may help you get a feel for the data.
- Compound: "COc1ccc(-c2cnc3c(-c4ccsc4)cnn3c2)cc1"
  residual activity / %: 89.2
- Compound: "O=C1Cc2c([nH]c3ccc([N+](=O)[O-])cc23)-c2ccccc2N1"
  residual activity / %: 90.6
- Compound: "O=C(NC(NC(=S)Nc1ccc(F)c([N+](=O)[O-])c1)C(Cl)(Cl)Cl)C(c1ccccc1)c1ccccc1 (centres undefined)"
  residual activity / %: 100

Okay, now this compound:
Value lookup for residual activity; key = O=C1Nc2ccccc2/C1=C\c1c(Cl)[nH]c2ccccc12 96.9

====

target: DYRK2 (human); assay: radiometric filter-binding kinase assay, Kinase HotSpot; details: compound 0.5 µM; ATP 10 µM
In this section we review reported residual activity values for a set of compounds.
Kindly provide the numeric value in % only, without the unit symbol.

- Compound: "CSc1nc(-c2ccc(F)cc2)c(-c2ccnc(NC(C)c3ccccc3)c2)[nH]1 (stereo not drawn)"
  Measured attribute: "residual activity"
  Reported measurement: 96.1
- Compound: "CC(C)n1cnc2c(Nc3cccc(Cl)c3)nc(NCCO)nc21"
  Measured attribute: "residual activity"
  Reported measurement: 93.9
- Compound: "Nc1n[nH]c2nnc(-c3c(-c4ccccc4)nn4ccccc34)cc12"
  Measured attribute: "residual activity"
  Reported measurement: 103

Reported residual activity for DYRK2 (human), given Clc1ccc(Nc2nnc(Cc3ccncc3)c3ccccc23)cc1 ? 103

Requested read-out residual activity, target or system DYRK2 (human), entry Oc1ccc(-c2nc(-c3ccc(F)cc3)c(-c3ccncc3)[nH]2)cc1 99.3

Which residual activity is reported with DYRK2 (human) for this entry: CC(C)[C@H](CO)Nc1nc(Nc2cccc(Cl)c2)c2ncn(C(C)C)c2n1 ? 98.4

Request - read-out residual activity | tested on DYRK2 (human) | compound NC(=O)c1ccc(N(C(N)=O)c2c(F)cccc2F)nc1-c1ccc(F)cc1F 102
